# EC50 values compiled below
Tested on: THP-1 viability, CellTiter-Glo luminescence, 72 h
measurementNotes: PubChem AID 2252

{"compound": "CC[C@H]1OC(=O)C[C@@H](O)[C@H](C)[C@@H](O[C@@H]2O[C@H](C)C[C@H](N(C)C)[C@H]2O)[C@@H](CC=O)C[C@@H](C)C(=O)C=C[C@]2(C)O[C@H]2[C@@H]1C", "measuredTarget": "THP-1 viability, CellTiter-Glo luminescence, 72 h", "EC50": "12.2 µM"}
{"compound": "CCOC(=O)c1c(CSC(=N)N)n(C)c2cc(Br)c(OC(C)=O)cc12", "measuredTarget": "THP-1 viability, CellTiter-Glo luminescence, 72 h", "EC50": "16.9 µM"}
{"compound": "CC1=NN(c2nc3ccccc3[nH]2)C(=O)C1Cc1ccccc1 (configuration not stated)", "measuredTarget": "THP-1 viability, CellTiter-Glo luminescence, 72 h", "EC50": "1.85 µM"}
{"compound": "C/C(=N\\NC(=O)c1cccc(Br)c1)c1ccccn1", "measuredTarget": "THP-1 viability, CellTiter-Glo luminescence, 72 h", "EC50": "1.55 µM"}
{"compound": "CC1CCCC(NC(=O)COC(=O)Cc2c[nH]c3ccccc23)C1C (configuration not stated)", "measuredTarget": "THP-1 viability, CellTiter-Glo luminescence, 72 h", "EC50": "< 0.1 µM"}
{"compound": "CC1CC(C)CN(CCOc2ccc(Cl)cc2Cl)C1 (configuration not stated)", "measuredTarget": "THP-1 viability, CellTiter-Glo luminescence, 72 h", "EC50": "29.4 µM"}
{"compound": "Cc1ccc2oc(=O)c(/C=C(\\O)c3ccccc3)nc2c1", "measuredTarget": "THP-1 viability, CellTiter-Glo luminescence, 72 h", "EC50": "< 0.1 µM"}
{"compound": "Cc1ccc2nc(/C(C#N)=C\\c3ccc([N+](=O)[O-])o3)[nH]c2c1", "measuredTarget": "THP-1 viability, CellTiter-Glo luminescence, 72 h", "EC50": "1.25 µM"}
{"compound": "COC(=O)C1C(O)C(C)C(O)C(C)(O)/C=C\\C=C(/C)C(=O)Nc2c(C)c(OC(C)=O)c3c(c2O)C(=O)C(C)=C2OCOC(=C23)/C(C)=C/C(C)(O)C(O)C(C)C1O (configuration not stated)", "measuredTarget": "THP-1 viability, CellTiter-Glo luminescence, 72 h", "EC50": "< 0.1 µM"}
{"compound": "NC1=NC[C@H](Cc2ccccc2)N1CCCCC1CCCCC1", "measuredTarget": "THP-1 viability, CellTiter-Glo luminescence, 72 h", "EC50": "3.5 µM"}
{"compound": "CN1CCN(c2ccc(NC(=O)CSc3ccccc3)cc2F)CC1", "measuredTarget": "THP-1 viability, CellTiter-Glo luminescence, 72 h", "EC50": "< 0.1 µM"}
{"compound": "O=C(CCN1CCOCC1)c1ccc(Br)cc1", "measuredTarget": "THP-1 viability, CellTiter-Glo luminescence, 72 h", "EC50": "43.2 µM"}

* * *

Test system: THP-1 viability, CellTiter-Glo luminescence, 72 h
measurementNotes: PubChem AID 2252
pEC50: −log10 of the molar value.

{"compound": "CN1CCN(C2Cc3ccc(Cl)cc3Sc3ccc(F)cc32)CC1 (centres undefined)", "pEC50": 4.94}
{"compound": "CCCCCCCCC[n+]1cccc2c3ccccc3ccc21", "pEC50": 6.09}
{"compound": "Nc1ncn([C@@H]2O[C@H](CO)[C@@H](O)[C@H]2O)c(=O)n1", "pEC50": 4.71}
{"compound": "Cc1cc(C2N=C(N)Nc3nc4ccccc4n32)c(C)n1-c1ccccc1Cl (centres undefined)", "pEC50": 4.94}
{"compound": "Cc1cc(C)c(OCCCCNCc2ccccc2)c(Cl)c1", "pEC50": 4.91}
{"compound": "CCOC(=O)c1cc(-c2ccc(F)cc2)n(CCC(=O)NC2CCN(Cc3ccccc3)CC2)c1C", "pEC50": 4.72}
{"compound": "O=C(N/N=C/c1ccc([N+](=O)[O-])o1)c1ccc(O)cc1", "pEC50": 4.88}
{"compound": "CCCCCNC(=O)c1cn(CC)c2cc(N3CCN(C)CC3)c(F)cc2c1=O", "pEC50": 4.70}
{"compound": "COc1ccc(CNCCC(c2ccccc2)c2ccc3c(c2)OCO3)cc1 (centres undefined)", "pEC50": 4.87}
